Target or system Amine oxidase [flavin-containing] A (Rattus norvegicus): recorded IC50 listed per item.
Quantity Kind: IC50 (µM)

>>> experimental_value("COc1ccc2c3c([nH]c2c1)C(C)=NCC3 [HARMALINE]")
0.012
>>> experimental_value("N#CCCn1nnc(-c2ccc([N+](=O)[O-])cc2)n1")
18

###

Molecular target: Amine oxidase [flavin-containing] B (Rattus norvegicus, UniProt P19643)
Sequence (P19643 whole entry): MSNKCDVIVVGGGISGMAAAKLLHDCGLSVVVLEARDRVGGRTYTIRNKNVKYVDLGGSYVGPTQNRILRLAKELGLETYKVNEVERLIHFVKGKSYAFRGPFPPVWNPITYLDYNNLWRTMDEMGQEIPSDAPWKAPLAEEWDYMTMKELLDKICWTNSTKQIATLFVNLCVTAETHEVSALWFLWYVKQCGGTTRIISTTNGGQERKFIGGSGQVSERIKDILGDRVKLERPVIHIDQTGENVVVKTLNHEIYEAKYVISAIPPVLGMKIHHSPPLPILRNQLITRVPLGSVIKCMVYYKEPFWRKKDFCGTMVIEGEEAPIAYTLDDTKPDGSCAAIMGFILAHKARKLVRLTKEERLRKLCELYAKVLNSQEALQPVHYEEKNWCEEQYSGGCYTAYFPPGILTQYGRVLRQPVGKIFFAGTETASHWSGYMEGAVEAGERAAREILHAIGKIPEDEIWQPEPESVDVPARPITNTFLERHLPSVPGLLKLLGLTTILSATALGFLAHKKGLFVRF
Test: Compound was evaluated for the Inhibition of Monoamine oxidase B
pIC50: −log10 of the molar value.
Quantity Kind: pIC50

>>> experimental_value("N#CCCn1nc(-c2ccc(OCc3ccccc3)cc2)oc1=S")
8.34
>>> experimental_value("N#CCCn1nc(-c2ccc(OCc3ccccc3)cc2)oc1=O")
8.34

###

Test: Selectivity for the B form was estimated by the IC50(MAO A)/IC50(MAO B) ratio.
Selectivity values, listed per item
Quantity Kind: Selectivity

>>> experimental_value("Cc1ccccc1COc1ccc(-c2nnn(CCO)n2)cc1")
"> 350"
>>> experimental_value("N#CCCCCCCn1nnc(-c2ccc(-c3ccccc3)cc2)n1")
8.5
>>> experimental_value("COc1ccc2c3c([nH]c2c1)C(C)=NCC3")
5
>>> experimental_value("OCCn1nnc(-c2ccc(OCc3cccc(Cl)c3)cc2)n1")
290
>>> experimental_value("N#CCCn1nnc(-c2ccc(OCc3ccccc3)cc2)n1")
37000
>>> experimental_value("N#CCCn1nnc(-c2ccc(OCc3cccc(Cl)c3)cc2)n1")
"> 1000"
>>> experimental_value("OCCn1nnc(-c2ccc(OCc3ccccc3)cc2)n1")
2100

###

Target: Amine oxidase [flavin-containing] A (Rattus norvegicus)
Sequence (P21396 whole entry): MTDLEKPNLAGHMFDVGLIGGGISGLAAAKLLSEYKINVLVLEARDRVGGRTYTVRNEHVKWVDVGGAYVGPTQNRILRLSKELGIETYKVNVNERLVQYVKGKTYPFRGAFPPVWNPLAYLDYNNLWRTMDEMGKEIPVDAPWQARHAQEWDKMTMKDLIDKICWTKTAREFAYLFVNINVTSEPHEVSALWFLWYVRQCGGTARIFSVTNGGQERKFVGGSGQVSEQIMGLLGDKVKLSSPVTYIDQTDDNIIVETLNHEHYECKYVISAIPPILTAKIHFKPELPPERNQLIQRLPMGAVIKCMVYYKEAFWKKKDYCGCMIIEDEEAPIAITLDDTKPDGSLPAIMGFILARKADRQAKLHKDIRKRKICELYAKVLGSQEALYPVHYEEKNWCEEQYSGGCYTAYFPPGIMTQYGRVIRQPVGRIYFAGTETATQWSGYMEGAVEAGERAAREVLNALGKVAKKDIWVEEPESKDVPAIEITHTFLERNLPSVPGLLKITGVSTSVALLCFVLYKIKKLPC
Assay: Ex vivo inhibitory activity against rat brain monoamine oxidase (MAO) type A at a dose of 5 mg/kg administered orally at 0.5 hr
Format: functional, organism-based
Set-up: dose 5 mg/kg, route oral
Conditions: po
Quantity Kind: inhibition at 5 mg/kg

>>> experimental_value("OCCn1nnc(-c2ccc(OCc3cccc(Cl)c3)cc2)n1")
"15%"
>>> experimental_value("OCCn1nnc(-c2ccc(OCc3ccccc3)cc2)n1")
"5%"
>>> experimental_value("N#CCCn1nnc(-c2ccc(OCc3ccccc3)cc2)n1")
"6%"
>>> experimental_value("N#CCCn1nnc(-c2ccc(OCc3cccc(Cl)c3)cc2)n1")
"13%"

###

Target: UniProt P21396
Assay: Ex vivo inhibitory activity against rat brain monoamine oxidase (MAO) type A at a dose of 5 mg/kg administered orally at 4 hr
Format: functional, organism-based
Design: dose 5 mg/kg, route oral
Settings: po
inhibition at 5 mg/kg values, listed per item
Quantity Kind: inhibition at 5 mg/kg

>>> experimental_value("N#CCCn1nnc(-c2ccc(OCc3cccc(Cl)c3)cc2)n1")
"8%"
>>> experimental_value("N#CCCn1nnc(-c2ccc(OCc3ccccc3)cc2)n1")
"0%"
>>> experimental_value("OCCn1nnc(-c2ccc(OCc3cccc(Cl)c3)cc2)n1")
"14%"
>>> experimental_value("OCCn1nnc(-c2ccc(OCc3ccccc3)cc2)n1")
"4%"

###

inhibition at 5 mg/kg values, listed per item
Molecular target: Amine oxidase [flavin-containing] B (Rattus norvegicus)
Test: Ex vivo inhibitory activity against rat brain monoamine oxidase (MAO) type B at a dose of 5 mg/kg administered orally at 1 hr
Assay type: functional, organism-based
Parameters: dose 5 mg/kg, route oral
Details: po
Quantity Kind: inhibition at 5 mg/kg (%)

>>> experimental_value("N#CCCn1nnc(-c2ccc(OCc3cccc(Cl)c3)cc2)n1")
81
>>> experimental_value("OCCn1nnc(-c2ccc(OCc3cccc(Cl)c3)cc2)n1")
71
>>> experimental_value("N#CCCn1nnc(-c2ccc(OCc3ccccc3)cc2)n1")
74
>>> experimental_value("OCCn1nnc(-c2ccc(OCc3ccccc3)cc2)n1")
84
